Recorded values, source patent US20260008847A1.

target: T1, 6×His-tagged human LILRB2 ECD recombinant protein (human, UniProt Q8N423 22-458, limits assumed); assay: Octet, 1:1 model; column printed as 'ka (1/Ms)', heads of c4 and c5 are swapped
T1 construct: Bought protein; not shown: 6×His-tag
T1 sequence (Q8N423 22-458 limits assumed): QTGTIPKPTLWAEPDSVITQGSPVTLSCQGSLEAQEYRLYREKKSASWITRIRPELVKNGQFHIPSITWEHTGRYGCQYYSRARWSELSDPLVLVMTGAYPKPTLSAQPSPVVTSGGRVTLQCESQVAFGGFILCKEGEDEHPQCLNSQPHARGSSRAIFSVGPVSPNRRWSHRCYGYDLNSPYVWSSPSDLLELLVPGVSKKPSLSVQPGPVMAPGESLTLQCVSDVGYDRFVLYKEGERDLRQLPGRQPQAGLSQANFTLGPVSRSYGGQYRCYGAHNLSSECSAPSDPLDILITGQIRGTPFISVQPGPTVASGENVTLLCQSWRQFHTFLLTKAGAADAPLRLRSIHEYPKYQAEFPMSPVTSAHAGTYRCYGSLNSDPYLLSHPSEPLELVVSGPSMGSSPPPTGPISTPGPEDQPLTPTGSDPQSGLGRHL
Readout label: koff (s⁻¹)
Numeric answer only, unit s⁻¹ assumed.

Data point: hu043.03 (antibody, V domains shown, Humanized human IgG4 antibody with S228P in the constant region; also called hu043VH8 / hu043VL4) VH: QVQLQQSGAEVKKPGASVKLSCKASGYTFTSYWMYWVRQRPGQGLEWIGHINPSSGYTKYNQKFKDRATLTADTSTSTAYMELSSLRSEDTAVYYCARDPNWDNYWGQGTTVTVSS VL: DIVMTQSPSSLSASVGDRVSITCKASQDVSIAVAWYQQKPGKAPKLLIYSASYRYTGVPDRFSGSGSGTDFTFTISSLQPEDIATYYCQQHYSTPYTFGGGTKLEIK ; koff = 0.00243

The recorded koff for hu043.05 (antibody, V domains shown, Humanized human IgG4 antibody with S228P in the constant region; also called hu043VH7 / hu043VL2) VH: QVQLVQSGAEVKKPGASVKVSCKASGYTFTSYWMYWVRQAPGQGLEWIGHINPSSGYTKYNQKFKDRVTMTADTSTSTVYMELSSLRSEDTAVYYCARDPNWDNYWGQGTTVTVSS VL: DIQMTQSPSSLSASVGDRVTITCKASQDVSIAVAWYQQKPGKAPKLLIYSASYRYTGVPSRFSGSGSGTDFTFTISSLQPEDIATYYCQQHYSTPYTFGGGTKLEIK is 0.00199

Sure, the documented koff for hu043.01 (antibody, V domains shown, Humanized human IgG4 antibody with S228P in the constant region; also called hu043VH6 / hu043VL4) VH: QVQLVQSGAEVKKPGASVKVSCKASGYTFTSYWMYWVRQAPGQGLEWIGHINPSSGYTKYNQKFKDRATLTADTSTSTAYMELSSLRSEDTAVYYCARDPNWDNYWGQGTTVTVSS VL: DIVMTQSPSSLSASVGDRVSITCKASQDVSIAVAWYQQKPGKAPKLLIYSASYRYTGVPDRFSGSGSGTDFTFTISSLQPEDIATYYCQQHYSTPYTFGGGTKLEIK is 0.00164

Record 043c (antibody, V domains shown, Human IgG4 chimeric antibody with S228P mutation at the Fc region; also called chimeric antibody 043c; parental antibody 043c) VH: QVQLQQSGAELAKPGASVKLSCKASGYTFTSYWMYWVKQRPGQGLEWIGHINPSSGYTKYNQKFKDKATLTADKSSSTAYMQLSSLTYEDSAVYYCARDPNWDNYWGQGTTLTVSS VL: DIVMTQSHKFMSTSVGDRVSITCKASQDVSIAVAWYQQKPGQSPKLLIYSASYRYTGVPDRFTGSGSGTDFTFTISSVQAEDLAVYYCQQHYSTPYTFGGGTKLEIK . Reported koff: 0.00119

get_value(item= hu043.04 (antibody, V domains shown, Humanized human IgG4 antibody with S228P in the constant region; also called hu043VH6 / hu043VL2) VH: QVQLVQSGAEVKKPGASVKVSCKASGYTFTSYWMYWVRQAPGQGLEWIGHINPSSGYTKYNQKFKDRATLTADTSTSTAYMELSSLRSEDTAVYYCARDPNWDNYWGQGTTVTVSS VL: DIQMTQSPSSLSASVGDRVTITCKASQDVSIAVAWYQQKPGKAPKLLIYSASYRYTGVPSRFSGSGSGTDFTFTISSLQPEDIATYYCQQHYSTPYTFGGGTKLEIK , readout=koff) returns 0.00185

get_value(item= hu043.06 (antibody, V domains shown, Humanized human IgG4 antibody with S228P in the constant region; also called hu043VH8 / hu043VL2) VH: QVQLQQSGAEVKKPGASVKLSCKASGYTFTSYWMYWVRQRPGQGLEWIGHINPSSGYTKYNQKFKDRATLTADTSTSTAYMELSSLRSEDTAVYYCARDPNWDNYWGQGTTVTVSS VL: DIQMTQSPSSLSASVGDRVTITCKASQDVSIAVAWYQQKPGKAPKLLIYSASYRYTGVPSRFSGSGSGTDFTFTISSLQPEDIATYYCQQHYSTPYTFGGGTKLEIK , readout=koff) returns 0.00186

Record hu043.02 (antibody, V domains shown, Humanized human IgG4 antibody with S228P in the constant region; also called hu043VH7 / hu043VL4) VH: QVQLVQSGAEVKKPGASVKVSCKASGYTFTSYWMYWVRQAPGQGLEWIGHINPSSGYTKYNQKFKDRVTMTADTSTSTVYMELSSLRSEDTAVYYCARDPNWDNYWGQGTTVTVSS VL: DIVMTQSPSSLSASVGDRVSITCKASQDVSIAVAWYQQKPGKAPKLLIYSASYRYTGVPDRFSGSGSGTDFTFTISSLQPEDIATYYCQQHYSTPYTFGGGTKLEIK . Reported koff: 0.00184
